I'd appreciate it if you could supply % Inhibition values for the items below.
# System: P. falciparum stage V gametocytes
# Parameters: BacTiter-Glo ATP luminescence viability of purified stage V gametocytes in 384-well plates, per cent inhibition versus DMSO
# measurement.parameters: 48 h, 5 µM; inhibitor
Screen size: about 13,000 compounds; about 3,200 (25%) showed an effect of 50% or more. This is one part of the list.
Numbers only, in %.

Recorded results for 2 compounds are shown here.
COc1cc(C)nc2ccc(NC(=O)Nc3ccc([N+](=O)[O-])cc3C)cc12 : -13.54
O=C(/C=C/c1ccc(Cl)c(Cl)c1)N1CCC(CN2CCC(c3c[nH]c4ccc(O)cc34)CC2)CC1 : 94.36

I'm hoping you can list % Inhibition for every compound here, please.
1. O=C(/C=C/c1ccc(Cl)c(Cl)c1)N1CCC(CN2CCC(c3c[nH]c4cc5c(cc34)OCO5)CC2)CC1
2. CCS(=O)(=O)Nc1ccc2[nH]cc(C3CCN(CCC4CCN(C(=O)/C=C/c5ccc(Cl)c(Cl)c5)CC4)CC3)c2c1
3. Cc1cc(N)c2cc(NC(=O)/C=C/c3ccccc3)ccc2n1
4. COc1cc(C)nc2ccc(NC(=O)c3cc([N+](=O)[O-])cc([N+](=O)[O-])c3)cc12

stdout:
1. -10.77
2. 78.45
3. 92.06
4. 32.9

stdin: Query the reported % Inhibition for P. falciparum stage V gametocytes; item: `O=C(Nc1ccccc1)Nc1cccc(-c2ccc(-c3nc4ccc(C(F)(F)F)cc4[nH]3)cc2)c1`
stdout: -20.54
